# Assay notes: NCI Yeast Anticancer Drug Screen. Data for the bub3 strain (AID 167)
# Applied conditions: S. cerevisiae bub3 mutant strain, at 50.0 µM, active compounds read high
About 79,000 compounds went through this panel and 15% of them were active in at least one assay; those are over-represented in the sample as a whole.

>  <Compound>
O=C1c2cc([N+](=O)[O-])cc3cc([N+](=O)[O-])cc(c23)C(=O)N1CCNCCN1C(=O)c2cc([N+](=O)[O-])cc3cc([N+](=O)[O-])cc(c23)C1=O

>  <growth inhibition, %>
92.3

$$$$
>  <Compound>
COC1=CC2=CCC3C(CCC4(C)C(C(C)=O)CCC34)C2(C)CC1 (configuration not stated)

>  <growth inhibition, %>
47.6

$$$$
>  <Compound>
COc1ccc(SC2=C(N(C)C(C)=O)C(=O)c3ccccc3C2=O)cc1

>  <growth inhibition, %>
99.6

$$$$
>  <Compound>
COc1cc2c(Cc3ccc(OC)c(OC)c3)[n+](Cc3ccccc3)ccc2cc1NCc1ccccc1

>  <growth inhibition, %>
81.1

$$$$
>  <Compound>
O=S(=O)(Nc1ccccc1C(F)(F)F)c1ccc(F)cc1

>  <growth inhibition, %>
35.4

$$$$
>  <Compound>
CC(=O)OCCCCCCCCCCCCCCO

>  <growth inhibition, %>
43

$$$$
>  <Compound>
CN1CC[C@@H](c2ccccc2)[C@@H](O)C1

>  <growth inhibition, %>
3.5

$$$$
>  <Compound>
CC1(C)CCN(CCOC(=O)C(c2ccccc2)C2C=CCCC2)C1 (configuration not stated)

>  <growth inhibition, %>
69.8

$$$$
>  <Compound>
CC(O)(c1ccccc1)c1ccccc1S(=O)(=O)Nc1ccccc1 (configuration not stated)

>  <growth inhibition, %>
98.9

$$$$
>  <Compound>
CCCC(=O)OCC1CC2C=CC1C2 (configuration not stated)

>  <growth inhibition, %>
15

$$$$
>  <Compound>
CCCCCCc1c(Cl)nc(Cl)nc1Cl

>  <growth inhibition, %>
25.1

$$$$
>  <Compound>
CCN(CC)CCCCCCNc1cc(C)cc2cccnc12

>  <growth inhibition, %>
18.9

$$$$
>  <Compound>
CCOC(=O)C1=C(C)NC(=O)NC1c1coc2cc(C)cc(C)c2c1=O (configuration not stated)

>  <growth inhibition, %>
-15.8

$$$$
>  <Compound>
c1ccc(OCCCOc2ccccc2)cc1

>  <growth inhibition, %>
10.3

$$$$
>  <Compound>
CCCCCCCCCCCCCCCC(=O)N(CCCN(CC)CC)C(C)CCCN(CC)CC (configuration not stated)

>  <growth inhibition, %>
19.6

$$$$
>  <Compound>
CC1(c2ccc(O)cc2)CC(C)(c2ccc(O)cc2)C1 (configuration not stated)

>  <growth inhibition, %>
95.2

$$$$
>  <Compound>
CC1(C)OC2C(CO)OC(n3ncc(=S)[nH]c3=O)C2O1 (configuration not stated)

>  <growth inhibition, %>
71

$$$$
>  <Compound>
CC1(C)CC(=N/O)/C(=N/O)C(=N\NC(N)=S)/C1

>  <growth inhibition, %>
64.9

$$$$
>  <Compound>
S=c1nc(/C=C/c2ccc(Cl)c(Cl)c2)[nH][nH]1

>  <growth inhibition, %>
83.7

$$$$
>  <Compound>
O=C(O)CCC(c1ccccc1)(c1ccccc1)c1ccccc1

>  <growth inhibition, %>
99.5

$$$$
>  <Compound>
NC(=S)N/N=C1\NC(=O)/C(=C/c2ccc3c(c2)OCO3)S1

>  <growth inhibition, %>
0.7

$$$$
>  <Compound>
O=C(O)Cc1cccc2c(=O)c3cccc([N+](=O)[O-])c3[nH]c12

>  <growth inhibition, %>
45.5

$$$$
>  <Compound>
CCCCC1C(=O)N2c3ccccc3-c3ccccc3N2C1=O

>  <growth inhibition, %>
17.4

$$$$
>  <Compound>
COC(=O)n1c(C[P+](c2ccccc2)(c2ccccc2)c2ccccc2)cc2ccccc21

>  <growth inhibition, %>
99.4

$$$$
>  <Compound>
OCCCC(Sc1ccccc1)c1ccccc1 (configuration not stated)

>  <growth inhibition, %>
-0.25

$$$$
>  <Compound>
Cn1c2ccccc2c2cc3cnccc3cc21

>  <growth inhibition, %>
90.8

$$$$
>  <Compound>
O=C(O)Cc1cc(I)c(Oc2ccc(O)c(I)c2)c(I)c1

>  <growth inhibition, %>
91.7

$$$$
>  <Compound>
CCOC(=O)/C(C)=N/Nc1cc(Cl)ccc1O

>  <growth inhibition, %>
34.5

$$$$
>  <Compound>
CC(C)C12CCC3(CCC4C(C)(C(=O)O)CCCC4(C)C3C1)C(CN)C2 (configuration not stated)

>  <growth inhibition, %>
96

$$$$
>  <Compound>
CCCOCCC#N

>  <growth inhibition, %>
-1.65

$$$$
>  <Compound>
O=c1ncccn1[C@@H]1O[C@H](CO)[C@H](O)C1O (some centres not stated)

>  <growth inhibition, %>
-5.75

$$$$
>  <Compound>
O=[N+]([O-])c1ccc(/C=N/O)o1

>  <growth inhibition, %>
99.6

$$$$
>  <Compound>
N#Cc1cccc(C[P+](c2ccccc2)(c2ccccc2)c2ccccc2)c1

>  <growth inhibition, %>
45.8

$$$$
>  <Compound>
CC1=CC(C2/C(=N/O)C=C(C)CC2(C)C)C(O)C(C)(C)C1 (configuration not stated)

>  <growth inhibition, %>
98.2

$$$$
>  <Compound>
Cc1ccc(OC/C=C/c2ccc(Cl)cc2)cc1

>  <growth inhibition, %>
67.4

$$$$
>  <Compound>
Clc1ccc(Oc2nc(Cl)nc3[nH]ncc23)cc1

>  <growth inhibition, %>
18.4

$$$$
>  <Compound>
COc1cc(C(c2cc3c(cc2O)OCO3)N2CCN(C(c3cc(OC)c(O)c(OC)c3)c3cc4c(cc3O)OCO4)CC2)cc(OC)c1O (configuration not stated)

>  <growth inhibition, %>
33.8

$$$$
>  <Compound>
CCCC1CCCC1(CC(=O)c1ccccc1)C(=O)O (configuration not stated)

>  <growth inhibition, %>
90.2

$$$$
>  <Compound>
COc1ccccc1C(=O)Nc1ccc(Cl)c(C(=O)OC(C)C)c1

>  <growth inhibition, %>
73.2

$$$$
>  <Compound>
Brc1ccc(C2c3ccccc3-c3ccccc32)cc1

>  <growth inhibition, %>
95.8

$$$$
>  <Compound>
CCC(=O)Oc1c(Cl)cc(Cl)c(Cl)c1Cl

>  <growth inhibition, %>
14.2

$$$$
>  <Compound>
CCCCCCCCCCCC(=O)OCCN(CC)CC

>  <growth inhibition, %>
93.2

$$$$
>  <Compound>
Cc1ccc(S(=O)(=O)NC(Cc2ccccc2)C(=O)CCl)cc1 (configuration not stated)

>  <growth inhibition, %>
84.5

$$$$
>  <Compound>
CC(C)(C)OC(=O)C(N(Cc1ccccc1)Cc1ccccc1)N(Cc1ccccc1)Cc1ccccc1

>  <growth inhibition, %>
4.75

$$$$
>  <Compound>
CC1(C)OC2COC3(CNO)OC(C)(C)OC3C2O1 (configuration not stated)

>  <growth inhibition, %>
63.9

$$$$
>  <Compound>
Nc1ncnc(N2CCOCC2)c1N

>  <growth inhibition, %>
-10.7

$$$$
>  <Compound>
CCN(CC)CCNc1ccc2ncn3c4c(OC)ccc(=O)c4c(O)c1c23

>  <growth inhibition, %>
-13.1

$$$$
